Just for reference, PubChem BioAssay is where these values come from.

Parameter viability: see the listing below.
assayText: reducers of endogenous Her2 protein level, primary screen, SKBR3 breast tumor cells, AlphaScreen, ATP viability (AID 461);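 also: percent of carrier control wells set as 100% viability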
details: 18-24 h, measured here: SKBR3 viability, ATP luminescence, at 10 µM
property: viability (%)

INSERT INTO measurements (compound, measurement) VALUES
  ('CN(C)c1ccc2c(c1)OC(N)=C(C#N)C2c1cccc(F)c1 (stereo not drawn)', 92),
  ('COc1ccc(-c2noc(-c3cc(Cl)ccc3Cl)n2)cc1OC', 122),
  ('O=C1CC(=O)N(Cc2cccs2)C(=O)N1', 93.5),
  ('N#CC1=C(N)SC(N)=C(C#N)C1CCc1ccccc1', 79.5),
  ('CCN1C(=O)Cc2cc(S(=O)(=O)N3CCOCC3)ccc21', 105),
  ('Cc1nc2ccccn2c1P(=O)(N1CCCCC1)N1CCCCC1', 92.5),
  ('O=C(NC1CCCc2ccccc21)C1CCN(S(=O)(=O)c2cnc[nH]2)CC1 (stereo not drawn)', 104),
  ('COc1cc(C(=O)Nc2cccc(-c3nc4cc(C)ccc4o3)c2)cc(OC)c1OC', 95),
  ('CCCCOc1ccc(CSc2n[nH]c(C)n2)cc1', 83.5),
  ('CCn1nnnc1NCc1cccn1C', 88),
  ('CCN(Cc1nc2ccccc2c(=O)[nH]1)Cc1cc(=O)oc2cc(C)c(C)cc12', 107),
  ('C=CCn1c(SCC(=O)NCCCC)nc2scc(-c3ccco3)c2c1=O', 91.5),
  ('CCn1c(=O)n(CC(=O)NCc2ccccc2OC)c(=O)c2ccccc21', 95),
  ('CCOc1ncccc1C(=O)OCC(=O)N1CC(=O)Nc2ccccc21', 87),
  ('CCCn1c(N)c(C(=O)CSc2nnc(Cc3ccccc3)o2)c(=O)n(C)c1=O', 104),
  ('COc1cc(OC)nc(NC(=O)CSc2nc3ccccc3o2)n1', 87.5),
  ('COC(=O)CC1SC(=O)NC1=O (stereo not drawn)', 110),
  ('O=c1c2ccccc2cnn1-c1nc2ccccc2s1', 91),
  ('c1cnn(-c2cc(N3CCOCC3)ncn2)c1', 70),
  ('O=C(Nc1ccc(F)cc1F)NC1CC(=O)N(Cc2ccccc2)C1 (stereo not drawn)', 92.5),
  ('CN(C1CCS(=O)(=O)C1)S(=O)C12CC3CC(CC(C3)C1)C2 (stereo not drawn)', 83),
  ('CCc1nc(SCC(=O)Nc2nccs2)c2oc3ccccc3c2n1', 91),
  ('COc1cc(NC(=O)C(C)Oc2ccccc2)c(C(=O)O)cc1OC (stereo not drawn)', 116),
  ('CCCCCc1c(C)nc(Nc2nc(C)c3cc(OC)ccc3n2)[nH]c1=O', 92.5),
  ('COc1cccc(C(=O)n2cnnc2N)c1OC', 120),
  ('CC1=C(C(=O)NCc2ccco2)C2(CCC(C)CC2)OC1=O (stereo not drawn)', 89.5),
  ('CCN(CCCNC(=O)CCNC(=O)Cn1ccc2ccccc2c1=O)c1ccccc1', 97.5),
  ('CCCCCc1c(O)c2ccccc2[nH]c1=O', 108),
  ('CC1=C(n2nnc3ccccc32)C(c2ccccc2)C(C#N)=C(N)O1 (stereo not drawn)', 72),
  ('Cc1nc2ccccn2c1C(=O)NCCCN1CCOCC1', 91.5),
  ('O=c1c2ccccc2sn1-c1ccc(S(=O)(=O)N2CCCCC2)cc1', 91.5),
  ('O=C(NC1CCS(=O)(=O)C1)c1c(NC(=O)C2COc3ccccc3O2)sc2c1CCCC2 (stereo not drawn)', 67),
  ('Cc1cnnc2c1-c1nonc1CC2', 94.5),
  ('Cc1nc(NC2=NCN(CC3CCCO3)CN2)nc2ccccc12 (stereo not drawn)', 98.5),
  ('CC(=O)NCCn1ccc2ccccc21', 117),
  ('Cc1ccccc1CNS(=O)(=O)c1ccc2c(c1)OCCO2', 95.5),
  ('CCCCCCNC(=O)Cc1c(O)c2ccccc2[nH]c1=O', 105),
  ('CCCOC(=O)c1[nH]c2c(c1C)C(=O)CC(c1ccc(OC)c(OC)c1)C2 (stereo not drawn)', 99),
  ('N#Cc1ccc(COC(=O)Cn2nnc(-c3ccccc3)n2)cc1', 111),
  ('CCOc1cc(C(=O)N(C)c2ccccc2)cc(OCC)c1OCC', 108),
  ('CCOc1ccc(NC(=O)CSc2nnnn2CC(=O)O)cc1', 104),
  ('O=C(OCN1C(=O)c2ccccc2C1=O)c1ccc2c(=O)n3c(nc2c1)CCC3', 109),
  ('O=C1N(c2ccccc2)C2CS(=O)(=O)CC2N1c1ccc(Br)cc1 (stereo not drawn)', 102),
  ('COc1ccc(CCNC(=O)c2cc(-c3cc(C)c(C)cc3O)n[nH]2)cc1OC', 93.5),
  ('CN1C(=O)CCC1(O)c1ccccc1 (stereo not drawn)', 89),
  ('Cc1ccccc1C1CC(c2ccccc2)Nc2ncnn21 (stereo not drawn)', 90),
  ('O=C(CCN1C(=O)c2ccccc2C1=O)OCN1C(=O)c2ccccc2C1=O', 95),
  ('O=C(c1cnn2c(C(F)(F)F)cc(-c3ccco3)nc12)N1CCc2ccccc2C1', 76);
